Reference source for all entries: PubChem BioAssay (NCI)

system: NCI-H226 lung; assay: NCI-60 one-dose screen, 48 h (100 = growth as untreated, 0 = no growth, -100 = all killed); details: 10 µM unless noted
About 83,000 compounds went through this panel and 20% of them were active in at least one assay; those are over-represented in the sample as a whole.
Property Label: growth (%)
# unit: % | format: bare number

molecule="Clc1ccc(CNc2nc(SCCN3CCOCC3)nc3c2cnn3CC(Cl)c2ccc(Br)cc2)cc1 (stereo not drawn)" unit_symbol=% reported_measurement=62.6

Task item: Record request: growth value, item O=C(c1ccc(Cl)cc1)C1[C@H](c2ccccc2Cl)[C@@H](c2ccccc2)NC12C(=O)Nc1ccc(Br)cc12 (stereo partly drawn)
Reply: -89.1

Task item: Record request: growth value, item Cn1cc(-c2cc3nc(-c4cn(C)c5ncc(Br)cc45)cc(N)n3n2)c2cc(F)ccc21
Reply: 10.9

Task item: Record request: growth value, item NCCCCn1c(SCCc2c[nH]c3ccccc23)nnc1-c1ccc2ccccc2n1
Reply: 55.2

Task item: Record request: growth value, item CC(C)(C)c1cc(-c2cc(-c3ccccc3)[nH]c(=O)c2C#N)cc(C(C)(C)C)c1
Reply: 3.42

Task item: Record request: growth value, item O=C(NNC(=S)NCCc1ccccc1)c1ccc(OCc2nc3ccc(Cl)cc3[nH]2)cc1
Reply: 97.7

Task item: Record request: growth value, item COc1cc(/C=N/NC(=O)c2ccc(OCc3nc4ccc(Cl)cc4[nH]3)cc2)cc(OC)c1OC
Reply: 35.5
